Assay: Quantitative High-Throughput drug screen in 47 multiple myeloma cell lines against the NCATS MIPE library collection: PE2_PLB cell viability assay (AID 1919869); also: potency is read from the fitted curve at half-maximal effect; nearly all actives have a fitted effect of over 35% in size
Settings: PE2_PLB myeloma cells viability, ATP luminescence, 48 h; series mostly up to 45.8 µM
Text: PI: Beverly A. Mock Ph.D. Laboratory of Cancer Biology and Genetics, Center for Cancer Research, National Cancer Institute, National Institute of Health, Bethesda, Maryland […] 5; Detector; 425V; Luminescence; Viewlux PerkinElmer. […] 1. […] Briefly, the corresponding myeloma cell lines were screened in 1,536-well plates with 500 cells, 5-uL per well for inhibition of cell viability (assessed by measuring ATP levels with CellTiterGlo). […]
Inconclusive results are not listed. Active and inactive are the calls of the source. Calls follow the shape of the dose curve; as a rule, active = well fitted cell-killing curve with a large enough effect; inconclusive = small, poorly fitted or top-dose-only effect, or effect the other way; inactive = no such curve, though single readings can be large or run the other way.
Assay endpoint: Potency

Check out these entries, answers already filled in.
COc1cc(N2CCC(C(N)=O)CC2)ccc1Nc1nc(N)c(Cl)c(Nc2ccccc2S(=O)(=O)C(C)C)n1 = 418 nM (active)
COc1cccc2c1C(=O)c1c(O)c3c(c(O)c1C2=O)C[C@@](O)(C(=O)CO)C[C@@H]3O[C@H]1C[C@H](N)[C@H](OC2CCCCO2)[C@H](C)O1 (stereo partly drawn) = 1180 nM (active)

Now look at this one.
Would you mind telling me what Potency value was observed for COC(=O)C=CC(=O)OC ?
5260 nM (active)
